The values you see were collected from paper PMC9943647.

Target: OBD triple mutant (Streptococcus plasmid pMV158, UniProt P13921 1-131, K3A;E4A;K5A)
Assay: EMSA; EMSA: 20 mM Tris-HCl pH 8.0, 5 mM DTT, 300 mM NaCl, 20 nM DNA, 20 min 25 C; footprinting same buffer; SPR: 10 mM HEPES pH 7.4, 150 mM NaCl, 3 mM EDTA, 0.005% P20
Settings: protein: recombinant; label: 5'-Cy5 (top); blunt
parameter-measured: Kd
# output: numeric value plus its unit

Task item: // query Kd value for entry 1DDR (dsDNA) DNA 1: AATCTCGGCGACTTTTTAGA DNA 2: TCTAAAAAGTCGCCGAGATT
Reply: 1100 nM
